molecular target: Hepatocyte Growth Factor Activator (HGFA) serine protease domain, N-terminal His-tag, recombinant (Homo sapiens (Human)) (UniProt Q04756)
Primed or numbered codes have the meaning given here. *: point of attachment. kt = C-terminal ketothiazole, c1csc(*)n1; kt″ = ketothiazole, c1csc(*)n1
Give measured IC50 of enzyme inhibition for each item. Keep answers brief.
Returns: string containing the number followed by the unit.

[ask] Data request, read-out IC50 of enzyme inhibition, for Ac-RQLR-kt (SMILES CC(=O)N[C@@H](CCCNC(=N)N)C(=O)N[C@@H](CCC(N)=O)C(=O)N[C@@H](CC(C)C)C(=O)N[C@@H](CCCNC(=N)N)C(=O)c1nccs1) [Ac-RQLR(SEQ ID NO: 6)-kt]
[reply] 270 nM

[ask] Do the same for Ac-TKLR-kt (SMILES CC(=O)N[C@H](C(=O)N[C@@H](CCCCN)C(=O)N[C@@H](CC(C)C)C(=O)N[C@@H](CCCNC(=N)N)C(=O)c1nccs1)[C@@H](C)O) [Ac-TKLR(SEQ ID NO: 16)-kt] please
[reply] 567 nM

[ask] Next binder: Ac-SHLR-kt (SMILES CC(=O)N[C@@H](CO)C(=O)N[C@@H](Cc1c[nH]cn1)C(=O)N[C@@H](CC(C)C)C(=O)N[C@@H](CCCNC(=N)N)C(=O)c1nccs1) [Ac-SHLR(SEQ ID NO: 11)-kt]
[reply] 1800 nM

[ask] # repeat for Ac-RKLR-kt (SMILES CC(=O)N[C@@H](CCCNC(=N)N)C(=O)N[C@@H](CCCCN)C(=O)N[C@@H](CC(C)C)C(=O)N[C@@H](CCCNC(=N)N)C(=O)c1nccs1) [Ac-RKLR(SEQ ID NO: 18)-kt]
[reply] 370 nM

[ask] Also Ac-WKLR-kt (SMILES CC(=O)N[C@@H](Cc1c[nH]c2ccccc12)C(=O)N[C@@H](CCCCN)C(=O)N[C@@H](CC(C)C)C(=O)N[C@@H](CCCNC(=N)N)C(=O)c1nccs1) [Ac-WKLR(SEQ ID NO: 12)-kt] ?
[reply] 320 nM

[ask] Would you mind doing Ac-KQLR-{kt″} (SMILES CC(=O)N[C@@H](CCCCN)C(=O)N[C@@H](CCC(N)=O)C(=O)N[C@@H](CC(C)C)C(=O)N[C@@H](CCCNC(=N)N)C(=O)c1nccs1) [Ac-KQLR(SEQ ID NO: 1)-kt] as well?
[reply] 445 nM

[ask] Consider next the binder Ac-SQLR-kt (SMILES CC(=O)N[C@@H](CO)C(=O)N[C@@H](CCC(N)=O)C(=O)N[C@@H](CC(C)C)C(=O)N[C@@H](CCCNC(=N)N)C(=O)c1nccs1) [Ac-SQLR(SEQ ID NO: 7)-kt] in the same way.
[reply] 180 nM

[ask] Now the binder Ac-WQLR-kt (SMILES CC(=O)N[C@@H](Cc1c[nH]c2ccccc12)C(=O)N[C@@H](CCC(N)=O)C(=O)N[C@@H](CC(C)C)C(=O)N[C@@H](CCCNC(=N)N)C(=O)c1nccs1) [Ac-WQLR(SEQ ID NO: 3)-kt]
[reply] 471 nM
